System: Surinam grass (Brachiaria decumbens)
Test: Test C pre/postemergence
Format: in vivo
Conditions: Postemergence, 250 g ai/ha; scale 0 to 100
Property measured: Plant response rating, Surinam Grass

| Compound | Study system | Plant response rating, Surinam Grass |
| --- | --- | --- |
| COC(=O)c1nc(C2CC2C)nc(N)c1Br (stereo not drawn) | Surinam grass (Brachiaria decumbens) | 0 |
| CCCCOC(=O)c1nc(C2CC2)nc(N)c1Br | Surinam grass (Brachiaria decumbens) | 55 |
| CN(C)N=Cc1nc(C2CC2)nc(N)c1Br | Surinam grass (Brachiaria decumbens) | 0 |
| Nc1nc(C2CC2)nc(C=NO)c1Br | Surinam grass (Brachiaria decumbens) | 0 |
| CCCOC(=O)c1nc(C2CC2)nc(N)c1Br | Surinam grass (Brachiaria decumbens) | 55 |

Please look at the following compound next.
Data request: Provide only the value of recorded Plant response rating, Surinam Grass for CC(=O)NN=Cc1nc(C2CC2)nc(N)c1Br
Data returned: 0
